- assayProcedure: mn = molality of the nth substance listed, in mol/kg
- conditionSummary: 275.15 K; 101 kPa; Liquid; Capillary tube (Ostwald / Ubbelohde) method; m2 = 0
Form field: viscosity (one value per entry).
measuredProperty: viscosity (mPa·s)

* O [water] + CCOCCO | 1.674
* O [water] + COCCO | 1.674
* O [water] + COCCOCCO | 1.674
* O [water] + CCOCCOCCO | 1.674

----------
- assayProcedure: mn = molality of the nth substance listed, in mol/kg
- conditionSummary: 283.15 K; 101 kPa; Liquid; Capillary tube (Ostwald / Ubbelohde) method; m2 = 0
Numbers after ± are expanded uncertainties.
measuredProperty: viscosity

* O [water] + CCOCCOCCO | 1.31 ± 0.053 mPa·s
* O [water] + CCOCCO | 1.31 ± 0.054 mPa·s
* O [water] + COCCOCCO | 1.31 ± 0.053 mPa·s
* O [water] + COCCO | 1.31 ± 0.053 mPa·s
